- ASSAY REMARKS: Initial plasma concentration in Sprague-Dawley rat at 1 mg/kg, iv
- Assay type: ADME, organism-based
METRIC: C0 (ng/mL)
The reply should contain only the number, in ng/mL.

Exam item: What does the record list as C0 for `CC#C[C@@H](CC(=O)O)c1ccc(OCc2ccc3nc(-c4c(C)cccc4C)nn3c2)cc1` ?
Marked response: 4340

====

- ASSAY REMARKS: Half life in Beagle dog at 3 mg/kg, po
- Type: ADME, organism-based, Canis lupus familiaris
- EXPERIMENTAL PARAMETERS: in vivo
METRIC: half-life (h)
The reply should contain only the number, in h.

Exam item: What does the record list as half-life for `CC#C[C@@H](CC(=O)O)c1ccc(OCc2ccc3nc(-c4c(C)cccc4C)nn3c2)cc1` ?
Marked response: 5.49

====

- ASSAY REMARKS: Volume of distribution in type 2 diabetes patient
- Type: ADME
- EXPERIMENTAL PARAMETERS: human, in vivo
METRIC: Vd

Exam item: What does the record list as Vd for `CC#C[C@@H](CC(=O)O)c1ccc(OCc2ccc(CN3CCCc4cccc(OC)c43)s2)cc1` ?
Marked response: 244 to 358 L

Exam item: What does the record list as Vd for `CC#C[C@@H](CC(=O)O)c1ccc(OCc2ccc(CN3CCC4(C=Cc5ccccc54)CC3)cc2)cc1` ?
Marked response: 111 L

Exam item: What does the record list as Vd for `CC#C[C@@H](CC(=O)O)c1ccc(OCc2ccc(N3CCC4(CCc5ccccc54)CC3)s2)cc1` ?
Marked response: 443 to 885 L

====

- SUBJECT OF TEST: Free fatty acid receptor 1 (Homo sapiens)
- Sequence (O14842 whole entry): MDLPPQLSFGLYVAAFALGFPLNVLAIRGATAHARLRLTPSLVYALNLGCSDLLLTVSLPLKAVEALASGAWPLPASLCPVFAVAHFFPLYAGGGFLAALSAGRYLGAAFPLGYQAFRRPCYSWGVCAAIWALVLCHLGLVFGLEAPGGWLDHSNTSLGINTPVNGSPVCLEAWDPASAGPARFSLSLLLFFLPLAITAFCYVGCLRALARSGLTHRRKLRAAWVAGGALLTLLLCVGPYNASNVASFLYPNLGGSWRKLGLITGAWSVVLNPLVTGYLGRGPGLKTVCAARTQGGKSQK
- ASSAY REMARKS: Agonist activity at human PK-tagged GPR40 expressed in HEK293 cells assessed as EA-tagged beta-arrestin recruitment after 90 mins in presence of 1 % heat inactivated FBS by beta-galactosidase reporter gene assay
- Type: cell-based
I'd be grateful if you could share measured EC50 for these entries.
Answer by giving the amount and then stating its unit.

Exam item: What does the record list as EC50 for `CC#C[C@@H](CC(=O)O)c1ccc(OCc2ccc3nc(-c4ccc(C#N)cc4)nn3c2)cc1` ?
Marked response: 443 nM

Exam item: What does the record list as EC50 for `CC#C[C@@H](CC(=O)O)c1ccc(OCc2ccc3nc(-c4ccc(OC(F)F)cc4)nn3c2)cc1` ?
Marked response: 166 nM

Exam item: What does the record list as EC50 for `CC#C[C@@H](CC(=O)O)c1ccc(OCc2ccc3nc(-c4c(C)cc(OCCCS(C)(=O)=O)cc4C)nn3c2)cc1` ?
Marked response: 1490 nM

Exam item: What does the record list as EC50 for `CC#C[C@@H](CC(=O)O)c1ccc(OCc2ccc3nc(-c4ccc(OCCOC)cc4)nn3c2)cc1` ?
Marked response: 681 nM

====

- ASSAY REMARKS: Cmax in Beagle dog at 100 mg/kg, po
- Format: ADME, organism-based, Canis lupus familiaris
- Parameters: dose 100 mg/kg, route oral
- EXPERIMENTAL PARAMETERS: in vivo
METRIC: Cmax (µg/mL)
The reply should contain only the number, in µg/mL.

Exam item: What does the record list as Cmax for `CC#C[C@@H](CC(=O)O)c1ccc(OCc2ccc3nc(-c4c(C)cccc4C)nn3c2)cc1` ?
Marked response: 260

====

- ASSAY REMARKS: Cmax in Sprague-Dawley rat at 500 mg/kg, po
- Type: ADME, organism-based
- Set-up: dose 500 mg/kg, route oral
- EXPERIMENTAL PARAMETERS: in vivo
METRIC: Cmax (µg/mL)
The reply should contain only the number, in µg/mL.

Exam item: What does the record list as Cmax for `CC#C[C@@H](CC(=O)O)c1ccc(OCc2ccc3nc(-c4c(C)cccc4C)nn3c2)cc1` ?
Marked response: 281

====

- ASSAY REMARKS: AUC (0 to 24 hrs) in Beagle dog at 100 mg/kg, po
- Assay type: ADME, organism-based, Canis lupus familiaris
- Set-up: time < 24 hr, dose 100 mg/kg, route oral
- EXPERIMENTAL PARAMETERS: in vivo
METRIC: AUC(0-t) at 24 h (µg·h/mL)
The reply should contain only the number, in µg·h/mL.

Exam item: What does the record list as AUC(0-t) at 24 h for `CC#C[C@@H](CC(=O)O)c1ccc(OCc2ccc3nc(-c4c(C)cccc4C)nn3c2)cc1` ?
Marked response: 3320

====

- ASSAY REMARKS: Tmax in Beagle dog at 3 mg/kg, po
- Type: ADME, organism-based, Canis lupus familiaris
- EXPERIMENTAL PARAMETERS: in vivo
METRIC: Tmax (min)
The reply should contain only the number, in min.

Exam item: What does the record list as Tmax for `CC#C[C@@H](CC(=O)O)c1ccc(OCc2ccc3nc(-c4c(C)cccc4C)nn3c2)cc1` ?
Marked response: 40.2

====

- Test system: Rattus norvegicus
- ASSAY REMARKS: Antidiabetic activity in po dosed Zucker fa/fa rat assessed as reduction in blood glucose AUC administered daily for 21 days followed by OGTT at 1 hr after compound dosing and measured 60 mins post glucose challenge by oral glucose tolerance test
- Assay type: functional
METRIC: ED90 (mg/kg)
The reply should contain only the number, in mg/kg.

Exam item: What does the record list as ED90 for `CC#C[C@@H](CC(=O)O)c1ccc(OCc2ccc(CN3CCC4(C=Cc5ccccc54)CC3)cc2)cc1` ?
Marked response: 1

Exam item: What does the record list as ED90 for `CC#C[C@@H](CC(=O)O)c1ccc(OCc2ccc(CN3CCCc4cccc(OC)c43)s2)cc1` ?
Marked response: 3.3

Exam item: What does the record list as ED90 for `CC#C[C@@H](CC(=O)O)c1ccc(OCc2ccc3nc(-c4c(C)cccc4C)nn3c2)cc1` ?
Marked response: 5

Exam item: What does the record list as ED90 for `CC#C[C@@H](CC(=O)O)c1ccc(OCc2ccc(N3CCC4(CCc5ccccc54)CC3)s2)cc1` ?
Marked response: 14.2

====

- SUBJECT OF TEST: Peroxisome proliferator-activated receptor gamma (Homo sapiens)
- Sequence (whole entry): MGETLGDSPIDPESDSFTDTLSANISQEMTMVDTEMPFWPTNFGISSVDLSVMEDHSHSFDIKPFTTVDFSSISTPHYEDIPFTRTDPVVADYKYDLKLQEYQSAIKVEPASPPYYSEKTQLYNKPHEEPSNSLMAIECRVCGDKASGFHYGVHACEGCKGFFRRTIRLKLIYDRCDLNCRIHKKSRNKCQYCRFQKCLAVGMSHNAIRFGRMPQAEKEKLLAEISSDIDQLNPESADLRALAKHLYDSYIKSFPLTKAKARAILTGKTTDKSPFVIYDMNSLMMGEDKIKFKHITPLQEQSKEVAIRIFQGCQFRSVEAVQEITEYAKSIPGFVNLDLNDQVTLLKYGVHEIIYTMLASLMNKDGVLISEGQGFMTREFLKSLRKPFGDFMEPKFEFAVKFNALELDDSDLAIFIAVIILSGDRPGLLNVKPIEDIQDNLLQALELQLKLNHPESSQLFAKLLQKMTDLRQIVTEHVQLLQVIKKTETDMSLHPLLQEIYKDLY
- ASSAY REMARKS: Displacement of [3H]-agonist from human PPARgamma expressed in baculovirus infecetd Sf9 cells system up to 30 uM after 10 hrs in presence of DR2 by scintillation proximity assay
Active and inactive are the calls of the source. The rule behind the calls is not given here.
METRIC: Activity

CC#C[C@@H](CC(=O)O)c1ccc(OCc2ccc3nc(-c4ccc(OC(F)F)cc4)nn3c2)cc1: inactive
CC#C[C@@H](CC(=O)O)c1ccc(OCc2ccc3nc(-c4c(C)cccc4C)nn3c2)cc1: inactive
CC#C[C@@H](CC(=O)O)c1ccc(OCc2ccc3nc(-c4ccc(C(C)C)cc4)nn3c2)cc1: inactive

====

- ASSAY REMARKS: AUC (0 to 24 hrs) in Sprague-Dawley rat at 100 mg/kg, po
- Format: ADME, organism-based
- Parameters: dose 100 mg/kg, time < 24 hr, route oral
- EXPERIMENTAL PARAMETERS: in vivo
METRIC: AUC(0-t) at 24 h (µg·h/mL)
The reply should contain only the number, in µg·h/mL.

Exam item: What does the record list as AUC(0-t) at 24 h for `CC#C[C@@H](CC(=O)O)c1ccc(OCc2ccc3nc(-c4c(C)cccc4C)nn3c2)cc1` ?
Marked response: 2870

====

- SUBJECT OF TEST: UniProtKB O14842
- ASSAY REMARKS: Agonist activity at human GPR40 receptor expressed in HEK293 cells assessed as increase in intracellular calcium flux after 2.5 hrs measured over 3 mins by calcium 4 dye-based FLIPR assay relative to linoleic acid
- Assay type: functional, cell-based
- Parameters: concentration or dose not given beside the values
METRIC: Activity (%)
The reply should contain only the number, in %.

Exam item: What does the record list as Activity for `CC#C[C@@H](CC(=O)O)c1ccc(OCc2ccc3nc(-c4ccc(OC(F)F)cc4)nn3c2)cc1` ?
Marked response: 64

Exam item: What does the record list as Activity for `CC#C[C@@H](CC(=O)O)c1ccc(OCc2ccc3nc(-c4c(C)cc(OCCCS(C)(=O)=O)cc4C)nn3c2)cc1` ?
Marked response: 71

Exam item: What does the record list as Activity for `CC#C[C@@H](CC(=O)O)c1ccc(OCc2ccc3nc(-c4ccc(C(C)C)cc4)nn3c2)cc1` ?
Marked response: 65

Exam item: What does the record list as Activity for `CC#C[C@@H](CC(=O)O)c1ccc(OCc2ccc3nc(-c4ccc(OCCC(C)(C)O)cc4)nn3c2)cc1` ?
Marked response: 89
